Target: acetylcholinesterase (AChE, from an electric eel) (Electrophorus electricus, UniProt O42275)
Construct: purchased Sigma-Aldrich
Sequence (O42275 24-633): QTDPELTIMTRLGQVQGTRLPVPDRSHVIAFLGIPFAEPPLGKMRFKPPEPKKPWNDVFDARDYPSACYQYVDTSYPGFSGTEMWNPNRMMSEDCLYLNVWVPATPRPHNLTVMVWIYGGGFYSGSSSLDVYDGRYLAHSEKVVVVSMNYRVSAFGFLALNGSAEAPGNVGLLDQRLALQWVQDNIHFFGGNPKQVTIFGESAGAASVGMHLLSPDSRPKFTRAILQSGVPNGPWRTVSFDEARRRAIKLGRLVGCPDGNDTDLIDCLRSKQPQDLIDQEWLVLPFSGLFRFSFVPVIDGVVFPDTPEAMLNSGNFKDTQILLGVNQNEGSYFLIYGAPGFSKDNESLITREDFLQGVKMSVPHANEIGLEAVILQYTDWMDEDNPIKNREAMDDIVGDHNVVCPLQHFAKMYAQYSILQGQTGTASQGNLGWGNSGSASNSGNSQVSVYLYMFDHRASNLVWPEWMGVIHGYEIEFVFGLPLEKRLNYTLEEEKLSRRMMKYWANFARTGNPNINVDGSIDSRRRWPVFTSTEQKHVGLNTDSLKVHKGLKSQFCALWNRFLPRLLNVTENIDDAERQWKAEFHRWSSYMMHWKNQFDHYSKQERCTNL
Experiment: biochemical
Settings: ratio of eeAChE and equine BuChE IC50
Consider the cut-off 1. If the recorded Selectivity Index = IC50 (AChE)/IC50 (BuChE) is strictly smaller, the label is Y; if not, the label is N.

**Query** is_below(Selectivity Index = IC50 (AChE)/IC50 (BuChE), 1) for Oc1ccc(F)c2ccc(CN3CCN(CCCCCNc4c5c(nc6ccccc46)CCCC5)CC3)nc12 [Compound 16i] ?
**Result** N

**Query** Same thing, different molecule: O=C(CN1CCN(Cc2ccc3c(Cl)cc(Cl)c(O)c3n2)CC1)Nc1c2c(nc3ccccc13)CCCC2 [Compound 15e]
**Result** N

====

Target: Aβ1–42 (Homo sapiens)
Construct: aggregation of Aβ1–42 synthetic peptide into fibrils
Sequence (P05067 672-713): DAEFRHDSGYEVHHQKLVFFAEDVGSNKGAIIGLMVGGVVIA
Assay: Inhibition of self-induced Aβ1–42 aggregation (ThT fluorescence)
Type: biochemical
Conditions: 20 μM compound, thioflavin-T fluorescence, mean ± SD of at least three independent experiments; read-out: Aβ Aggregation Inhibition (%), self-induced Aβ1–42
Parameter: inhibition at 20 µM
# output: numeric value plus its unit

A selection of reference data follows.
Nc1cccc2ccc(CN3CCN(CC(=O)Nc4c5c(nc6ccccc46)CCCC5)CC3)nc12 [Compound 15f]	22%
Oc1cccc2ccc(CN3CCN(CCCNc4c5c(nc6ccccc46)CCCC5)CC3)nc12 [Compound 16e]	80.5%

**Query** // inhibition at 20 µM lookup, key: Oc1ccc(F)c2ccc(CN3CCN(CCNc4c5c(nc6ccccc46)CCCC5)CC3)nc12 [Compound 16b]
**Result** 22.9%

**Query** Same thing, different molecule: Oc1ccc(F)c2ccc(CN3CCN(CCCNc4c5c(nc6ccccc46)CCCC5)CC3)nc12 [Compound 16f]
**Result** 54.4%

**Query** Same thing, different molecule: Oc1c(Cl)cc(Cl)c2ccc(CN3CCN(CCNc4c5c(nc6ccccc46)CCCC5)CC3)nc12 [Compound 16c]
**Result** 92.5%

**Query** Same thing, different molecule: O=C(CN1CCN(Cc2ccc3cccc(O)c3n2)CC1)Nc1c2c(nc3ccccc13)CCCC2 [Compound 15a]
**Result** 46.8%

**Query** Same thing, different molecule: Oc1ccc(Cl)c2ccc(CN3CCN(CCCCCNc4c5c(nc6ccccc46)CCCC5)CC3)nc12 [Compound 16j]
**Result** 74.8%

**Query** Same thing, different molecule: Nc1cccc2ccc(CN3CCN(CCNc4c5c(nc6ccccc46)CCCC5)CC3)nc12 [Compound 16d]
**Result** 84.7%

====

Biological target: acetylcholinesterase (AChE, from an electric eel) (Electrophorus electricus)
Parameter: pIC50
Units for pIC50: none; it is -log10 of a concentration expressed in mol/L.

A selection of reference data follows.
O=C(CN1CCN(Cc2ccc3c(Cl)cc(Cl)c(O)c3n2)CC1)Nc1c2c(nc3ccccc13)CCCC2 [Compound 15e]	5.24
Nc1cccc2ccc(CN3CCN(CC(=O)Nc4c5c(nc6ccccc46)CCCC5)CC3)nc12 [Compound 15f]	5.91
Oc1cccc2ccc(CN3CCN(CCCNc4c5c(nc6ccccc46)CCCC5)CC3)nc12 [Compound 16e]	7.00
Oc1ccc(F)c2ccc(CN3CCN(CCCNc4c5c(nc6ccccc46)CCCC5)CC3)nc12 [Compound 16f]	7.06
Oc1ccc(F)c2ccc(CN3CCN(CCNc4c5c(nc6ccccc46)CCCC5)CC3)nc12 [Compound 16b]	6.72
Nc1cccc2ccc(CN3CCN(CCCCCNc4c5c(nc6ccccc46)CCCC5)CC3)nc12 [Compound 16k]	6.68
O=C(CN1CCN(Cc2ccc(O)c3ncccc23)CC1)Nc1c2c(nc3ccccc13)CCCC2 [Compound 17a]	5.35
O=C(CN1CCN(Cc2ccc3c(Cl)ccc(O)c3n2)CC1)Nc1c2c(nc3ccccc13)CCCC2 [Compound 15b]	5.66

**Query** // pIC50 lookup, key: Oc1cccc2ccc(CN3CCN(CCNc4c5c(nc6ccccc46)CCCC5)CC3)nc12 [Compound 16a]
**Result** 6.36

**Query** Same thing, different compound: Nc1cccc2ccc(CN3CCN(CCNc4c5c(nc6ccccc46)CCCC5)CC3)nc12 [Compound 16d]
**Result** 6.74

**Query** Same thing, different compound: Nc1cccc2ccc(CN3CCN(CCCNc4c5c(nc6ccccc46)CCCC5)CC3)nc12 [Compound 16g]
**Result** 7.28

====

Reported LogK Zn (affinity of ligand for Zn^II, ML2) values are given for each entry in this list.
Test: Metal chelation by UV–vis spectrometry, stoichiometry and affinity estimate (Zn)
Format: physicochemical
Details: CH3OH/H2O (v/v = 9/1), 2L+M⇔ML2
Write no unit; give the number alone.

**Query** // LogK Zn (affinity of ligand for Zn^II, ML2) lookup, key: Oc1ccc(Cl)c2ccc(CN3CCN(CCCCCNc4c5c(nc6ccccc46)CCCC5)CC3)nc12 [Compound 16j]
**Result** 9.65

**Query** Same thing, different molecule: Oc1c(I)cc(Cl)c2cccnc12 [clioquinol, reference compound]
**Result** 8.38

**Query** Same thing, different molecule: Oc1ccc(F)c2ccc(CN3CCN(CCCNc4c5c(nc6ccccc46)CCCC5)CC3)nc12 [Compound 16f]
**Result** 9.45

**Query** Same thing, different molecule: Oc1cccc2ccc(CN3CCN(CCNc4c5c(nc6ccccc46)CCCC5)CC3)nc12 [Compound 16a]
**Result** 9.48

**Query** Same thing, different molecule: O=C(CN1CCN(Cc2ccc3c(Cl)cc(Cl)c(O)c3n2)CC1)Nc1c2c(nc3ccccc13)CCCC2 [Compound 15e]
**Result** 9.65

**Query** Same thing, different molecule: O=C(CN1CCN(Cc2ccc3c(Cl)ccc(O)c3n2)CC1)Nc1c2c(nc3ccccc13)CCCC2 [Compound 15b]
**Result** 11.34

**Query** Same thing, different molecule: Oc1cccc2ccc(CN3CCN(CCCNc4c5c(nc6ccccc46)CCCC5)CC3)nc12 [Compound 16e]
**Result** 9.63

**Query** Same thing, different molecule: Cc1ccc2c(CN3CCN(CC(=O)Nc4c5c(nc6ccccc46)CCCC5)CC3)ccc(O)c2n1 [Compound 17b]
**Result** 9.71

**Query** Same thing, different molecule: Oc1c(Cl)cc(Cl)c2ccc(CN3CCN(CCNc4c5c(nc6ccccc46)CCCC5)CC3)nc12 [Compound 16c]
**Result** 9.28

**Query** Same thing, different molecule: Oc1ccc(F)c2ccc(CN3CCN(CCCCCNc4c5c(nc6ccccc46)CCCC5)CC3)nc12 [Compound 16i]
**Result** 9.49

====

Target: acetylcholinesterase (AChE, from an electric eel) (Electrophorus electricus, UniProt O42275)
Construct: purchased Sigma-Aldrich
Experiment: biochemical
Settings: ratio of eeAChE and equine BuChE IC50
Categories are assigned from the measured Selectivity Index = IC50 (AChE)/IC50 (BuChE) using these intervals: A: < 0.3; B: ≥ 0.3 and < 3; C: ≥ 3

Nc1cccc2ccc(CN3CCN(CCCCCNc4c5c(nc6ccccc46)CCCC5)CC3)nc12 [Compound 16k]	C

**Query** Band of Oc1ccc(F)c2ccc(CN3CCN(CCCNc4c5c(nc6ccccc46)CCCC5)CC3)nc12 [Compound 16f] ?
**Result** C

**Query** Same thing, different compound: O=C(CN1CCN(Cc2ccc3cccc(O)c3n2)CC1)Nc1c2c(nc3ccccc13)CCCC2 [Compound 15a]
**Result** A

**Query** Same thing, different compound: Nc1cccc2ccc(CN3CCN(CCCNc4c5c(nc6ccccc46)CCCC5)CC3)nc12 [Compound 16g]
**Result** B

====

Reported IC50 values are given for each entry in this list.
Target: butyrylcholinesterase (BuChE, from horse serum) (Equus caballus)
Sequence (P81908 whole entry): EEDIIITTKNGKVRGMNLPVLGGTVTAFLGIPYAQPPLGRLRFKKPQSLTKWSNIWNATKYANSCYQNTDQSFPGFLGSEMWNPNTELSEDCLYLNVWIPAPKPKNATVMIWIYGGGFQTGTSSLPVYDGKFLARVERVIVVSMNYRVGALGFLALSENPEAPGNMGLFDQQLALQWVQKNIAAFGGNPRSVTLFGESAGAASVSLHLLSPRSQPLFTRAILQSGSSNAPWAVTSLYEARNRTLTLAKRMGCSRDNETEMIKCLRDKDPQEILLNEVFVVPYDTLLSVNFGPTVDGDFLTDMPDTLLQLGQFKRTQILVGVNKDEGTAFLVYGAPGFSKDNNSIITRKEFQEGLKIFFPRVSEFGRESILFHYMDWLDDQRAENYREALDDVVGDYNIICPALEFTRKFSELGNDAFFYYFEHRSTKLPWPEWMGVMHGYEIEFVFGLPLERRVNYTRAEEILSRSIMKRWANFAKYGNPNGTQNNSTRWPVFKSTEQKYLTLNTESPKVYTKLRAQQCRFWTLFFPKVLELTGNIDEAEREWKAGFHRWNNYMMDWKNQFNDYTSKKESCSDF
Experiment: biochemical
Conditions: equine serum BuChE, Ellman's method, pH 7.4; means ± SEM of at least three experiments; read-out: IC50 BuChE Inhibition
# output: numeric value plus its unit

Nc1cccc2ccc(CN3CCN(CC(=O)Nc4c5c(nc6ccccc46)CCCC5)CC3)nc12 [Compound 15f]	7850 nM
Oc1ccc(F)c2ccc(CN3CCN(CCCCCNc4c5c(nc6ccccc46)CCCC5)CC3)nc12 [Compound 16i]	120 nM
O=C(CN1CCN(Cc2ccc(O)c3ncccc23)CC1)Nc1c2c(nc3ccccc13)CCCC2 [Compound 17a]	4130 nM
Oc1ccc(F)c2ccc(CN3CCN(CCCNc4c5c(nc6ccccc46)CCCC5)CC3)nc12 [Compound 16f]	28 nM
Oc1cccc2ccc(CN3CCN(CCCNc4c5c(nc6ccccc46)CCCC5)CC3)nc12 [Compound 16e]	43 nM

**Query** // IC50 lookup, key: Oc1cccc2ccc(CN3CCN(CCNc4c5c(nc6ccccc46)CCCC5)CC3)nc12 [Compound 16a]
**Result** 270 nM

====

Assay: Metal chelation by UV–vis spectrometry, Job's method and affinity estimate (Cu)
Assay type: physicochemical
Conditions: CH3OH/H2O (v/v = 9/1), UV–vis, 2L+M⇔ML2
Parameter: LogK Cu (affinity of ligand for Cu^II, ML2)
Write no unit; give the number alone.

**Query** // LogK Cu (affinity of ligand for Cu^II, ML2) lookup, key: Oc1c(I)cc(Cl)c2cccnc12 [clioquinol, reference compound]
**Result** 9.86

Value source: paper PMC12430544
